System: hiPSC-CMs
Experiment: Optical measurement of action potential duration (APD90) in hiPSC-CMs using voltage-sensitive dye di-4-ANEPPS
Settings: Homo sapiens, read-out: D150 (concentration that prolongs the AP by 50%)
Assignment: determine reported EC (50% APD prolongation) for the given compounds.
Answers are plain numbers, in µM.

Observe how each entry below is paired with its result.
[[record]]
compound = "CCN(CCOc1ccc([N+](=O)[O-])cc1)CCc1ccc([N+](=O)[O-])cc1 [Dofe54]"
recorded_endpoint = "EC (50% APD prolongation)"
value_observed = 0.0043

[[record]]
compound = "CN(CCCCOc1ccc([N+](=O)[O-])cc1)CCc1ccc([N+](=O)[O-])cc1 [Dofe81]"
recorded_endpoint = "EC (50% APD prolongation)"
value_observed = 0.0025

[[record]]
compound = "CN(CCOc1ccc([N+](=O)[O-])cc1)CCc1ccc([N+](=O)[O-])cc1 [Dofe35]"
recorded_endpoint = "EC (50% APD prolongation)"
value_observed = 0.0083


Read the next record carefully.
O=[N+]([O-])c1ccc(CCN(CCF)CCOc2ccc([N+](=O)[O-])cc2)cc1 [Dofe60] yielded EC (50% APD prolongation) of 0.0213

Data provenance is paper PMC5573420.
